Measured On: CutC from Clostridium sporogenes (Clostridium sporogenes, UniProt A0AAE4Z0A8)
Sequence (A0ABD6RTF0 entry or part of it): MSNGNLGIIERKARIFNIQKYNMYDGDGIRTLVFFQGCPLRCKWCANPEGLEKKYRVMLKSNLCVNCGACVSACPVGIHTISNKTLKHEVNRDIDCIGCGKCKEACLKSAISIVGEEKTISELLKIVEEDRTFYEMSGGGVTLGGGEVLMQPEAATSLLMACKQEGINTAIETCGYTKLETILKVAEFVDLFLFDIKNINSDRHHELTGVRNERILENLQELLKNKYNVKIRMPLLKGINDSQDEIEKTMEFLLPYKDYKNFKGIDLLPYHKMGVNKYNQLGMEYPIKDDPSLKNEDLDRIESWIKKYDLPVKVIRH
Sequence (A0AAE4Z0A8 entry or part of it): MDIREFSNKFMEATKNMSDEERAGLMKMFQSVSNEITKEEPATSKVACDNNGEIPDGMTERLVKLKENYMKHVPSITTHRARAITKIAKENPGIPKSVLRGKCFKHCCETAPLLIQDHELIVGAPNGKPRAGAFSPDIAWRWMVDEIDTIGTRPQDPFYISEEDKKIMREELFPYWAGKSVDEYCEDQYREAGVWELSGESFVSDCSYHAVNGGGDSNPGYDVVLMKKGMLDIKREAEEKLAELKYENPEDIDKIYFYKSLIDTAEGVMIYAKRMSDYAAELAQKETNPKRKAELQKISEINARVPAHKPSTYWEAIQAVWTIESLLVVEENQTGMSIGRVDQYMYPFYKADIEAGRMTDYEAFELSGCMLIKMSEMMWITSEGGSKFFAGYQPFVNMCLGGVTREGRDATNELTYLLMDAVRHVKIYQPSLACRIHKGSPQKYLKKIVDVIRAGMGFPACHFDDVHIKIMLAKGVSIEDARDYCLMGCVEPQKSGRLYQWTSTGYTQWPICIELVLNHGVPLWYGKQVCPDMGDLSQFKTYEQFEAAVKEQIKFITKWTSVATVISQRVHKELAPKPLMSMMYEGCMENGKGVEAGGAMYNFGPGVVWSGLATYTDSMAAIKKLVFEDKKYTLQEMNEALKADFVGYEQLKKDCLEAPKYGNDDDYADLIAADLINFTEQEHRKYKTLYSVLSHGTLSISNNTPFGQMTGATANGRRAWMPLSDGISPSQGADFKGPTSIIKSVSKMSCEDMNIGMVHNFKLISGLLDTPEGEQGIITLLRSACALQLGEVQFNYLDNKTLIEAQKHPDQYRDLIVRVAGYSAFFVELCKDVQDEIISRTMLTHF
Test Method Notes: Cell-based assay for TMA production from a native producer (C. sporogenes)
Stated Conditions: read-out: IC50 Whole cell C. sporogenes; d9-TMA from 1 mM d9-choline, 5 h, 37° C.; run once; value 10 given when no fit or % TMA remaining at 10 μM higher than 15%
Listed next: entries and their corresponding IC50.
All answers are understood in nM, so give the number only.

Check out these entries, answers already filled in.
C#CC[N+]1(C)CC[C@H](O)C1 (stereo partly drawn) = 280
C[N+](C)(CF)CC(O)O = 1500
C#CC[N+](C)(C)CCCCC(=O)O = 930

Attention now shifts to the item below.
Name the value of IC50 reported for C[N+](C)(CCO)C1CC1.[I-] when tested on CutC from Clostridium sporogenes (Clostridium sporogenes, UniProt A0AAE4Z0A8).
220
